Method Summary: photoluminescence quantum yield (fraction); solvent given as SMILES
Condition Info: in ClC(Cl)Cl
Recorded Metric: photoluminescence quantum yield
// return just the number, without any unit appended

Quick one: photoluminescence quantum yield of CC(=O)OCCOCCN1C(=O)c2cc(NCCOCCO)c3c4c(cc(NCCOCCO)c(c24)C1=O)C(=O)N(CCOCCOC(C)=O)C3=O ?
0.59

Quick one: photoluminescence quantum yield of CCCCCCCCCCCCCCCCOc1cc(C#Cc2ccc3ccccc3c2-c2c(C#Cc3cc(OCCCCCCCCCCCCCCCC)c(C#Cc4ccc(C=C(C#N)C#N)cc4)cc3OCCCCCCCCCCCCCCCC)ccc3ccccc23)c(OCCCCCCCCCCCCCCCC)cc1C#Cc1ccc(C=C(C#N)C#N)cc1 ?
0.81

Quick one: photoluminescence quantum yield of COc1cc(OC)cc(-c2ccc(-c3ccc(C#N)s3)s2)c1 ?
0.1

* * *

Method Summary: photoluminescence quantum yield (fraction); solvent given as SMILES
Condition Info: in CC(C)O
Recorded Metric: photoluminescence quantum yield
// return just the number, without any unit appended

Quick one: photoluminescence quantum yield of COC(=O)C(Cc1ccc2oc(-c3ccc(N(c4ccccc4)c4ccccc4)cc3)nc2c1)NC(=O)OC(C)(C)C (stereo not given) ?
0.77

Quick one: photoluminescence quantum yield of CC[n+]1c(C=C2C(=O)C(C=C3Sc4cc(Cl)ccc4N3C)=C2[O-])[se]c2ccccc21 ?
0.17

Quick one: photoluminescence quantum yield of Nc1cc(N)cc(-c2nc3ccccc3s2)c1 ?
0.055

Quick one: photoluminescence quantum yield of COC(=O)C(Cc1ccc2oc(-c3ccc4c(c3)c3ccccc3n4-c3ccccc3)nc2c1)NC(=O)OC(C)(C)C (stereo not given) ?
1

Quick one: photoluminescence quantum yield of COCCOCCOCCOCCOc1cc(C=O)c(OCCOCCOCCOCCOC)cc1C=O ?
0.11

* * *

Method Summary: photoluminescence quantum yield (fraction); solvent given as SMILES
Condition Info: in Cc1ccccc1
Could you please report measured photoluminescence quantum yield for the items listed next?
// return just the number, without any unit appended

Quick one: photoluminescence quantum yield of CCCCCCCCCCCCCCCCOc1cc(C#Cc2ccc3ccccc3c2)c(OCCCCCCCCCCCCCCCC)cc1C#Cc1ccc(C=C(C#N)C#N)cc1 ?
0.82

Quick one: photoluminescence quantum yield of Nc1cccc2cccc(N)c12 ?
0.13

Quick one: photoluminescence quantum yield of CCCCc1ccc(-n2c3c(c4c2c2c(n4-c4ccc(CCCC)cc4)-c4ccc(C(F)(F)F)cc4NB2c2ccccc2)B(c2ccccc2)Nc2cc(C(F)(F)F)ccc2-3)cc1 ?
0.78

Quick one: photoluminescence quantum yield of c1ccc(N(c2ccccc2)c2ccc3c(ccc4nc5ccc6cc(N(c7ccccc7)c7ccccc7)ccc6c5nc43)c2)cc1 ?
0.44

Quick one: photoluminescence quantum yield of CN(C)c1ccc(C#Cc2cc3ccc4cc(C#Cc5ccc(N(C)C)cc5)cc5ccc(c2)c3c45)cc1 ?
0.39

Quick one: photoluminescence quantum yield of Cc1ccc(-n2c(-c3cccc4cc[n-]c34)[nH+]c3c4ccccc4c4ccccc4c32)cc1 ?
0.015

Quick one: photoluminescence quantum yield of Cc1cc(C)c(-c2nnc(-c3ccc(-n4c5ccccc5c5ccccc54)cc3)o2)c(C)c1 ?
0.59

Quick one: photoluminescence quantum yield of c1ccc(-c2nc3ccccc3nc2-c2ccc(-n3c4ccccc4c4ccccc43)cc2)cc1 ?
0.32

Quick one: photoluminescence quantum yield of Cc1cc(C)c(B(c2ccc(N3c4ccccc4C(C)(C)c4ccccc43)cc2)c2c(C)cc(C)cc2C)c(C)c1 ?
0.89

Quick one: photoluminescence quantum yield of [C-]#[N+]c1ccc(-c2ccc(NC)cc2)cc1 ?
0.59

Quick one: photoluminescence quantum yield of c1ccc(C(=C(c2ccccc2)c2ccc(-c3nc4c(-c5ccc(C(=C(c6ccccc6)c6ccccc6)c6ccccc6)cc5)sc(-c5ccc(C(=C(c6ccccc6)c6ccccc6)c6ccccc6)cc5)c4nc3-c3ccc(C(=C(c4ccccc4)c4ccccc4)c4ccccc4)cc3)cc2)c2ccccc2)cc1 ?
0.267

Quick one: photoluminescence quantum yield of Cc1cccc2[n+]1[B-](F)(F)n1c(c3cccc4cccc1c43)=N2 ?
0.99

Quick one: photoluminescence quantum yield of CCCCCCCCC1(CCCCCCCC)c2cc(C#CC#Cc3ccc(N(c4ccccc4)c4ccccc4)cc3)ccc2-c2ccc(C=O)cc21 ?
0.94

Quick one: photoluminescence quantum yield of CCC1(CC)c2ccccc2-c2ccc(C#Cc3cc(C#Cc4ccc5c(c4)C(CC)(CC)c4ccccc4-5)c4ccc5c(C#Cc6ccc7c(c6)C(CC)(CC)c6ccccc6-7)cc(C#Cc6ccc7c(c6)C(CC)(CC)c6ccccc6-7)c6ccc3c4c65)cc21 ?
0.64

Quick one: photoluminescence quantum yield of CCCCCCc1ccc(-n2c3[n+](c4c5ccccc5c5ccccc5c42)[B-](C)(C)c2ccccc2-3)cc1 ?
0.46

Quick one: photoluminescence quantum yield of CC1(C)c2ccccc2-n2c(-c3ccc(N4c5ccccc5Sc5ccccc54)cc3)nc3cccc1c32 ?
0.08

Quick one: photoluminescence quantum yield of CCN(CC)c1ccc2ccc(=O)oc2c1 ?
0.83

Quick one: photoluminescence quantum yield of C(#Cc1cc2ccc3cccc4ccc(c1)c2c34)c1ccccc1 ?
0.44

Quick one: photoluminescence quantum yield of Fc1c(-c2nnc(-c3ccccc3)o2)c(-n2c3ccccc3c3ccccc32)c(F)c(-n2c3ccccc3c3ccccc32)c1-n1c2ccccc2c2ccccc21 ?
0.2

Quick one: photoluminescence quantum yield of COc1ccc(C2=C(c3ccc(OC)cc3)C(c3ccccc3)=[N+]3C2=Nc2c(-c4ccc(OC)cc4)c(-c4ccc(OC)cc4)c(-c4ccccc4)n2[B-]3(F)F)cc1 ?
0.01

Quick one: photoluminescence quantum yield of CCCCCCCCCCCCC(CCCCCCCCCC)Cn1c2cc(/C=C/c3nc4ccccc4s3)c3cccc4c5cccc6c(/C=C/c7nc8ccccc8s7)cc1c(c65)c2c34 (stereo unspecified) ?
0.398

Quick one: photoluminescence quantum yield of Cc1cc(C)c(B(c2c(C)cc(C)cc2C)N2c3ccccc3C(c3ccccc3)(c3ccccc3)c3ccccc32)c(C)c1 ?
0.974

Quick one: photoluminescence quantum yield of CCCCCCc1ccc(-n2c3c(c4c2c2c(n4-c4ccc(CCCCCC)cc4)-c4cccc(OC)c4NB2c2ccccc2)B(c2ccccc2)Nc2c(OC)cccc2-3)cc1 ?
0.62

Quick one: photoluminescence quantum yield of [O-]c1ccccc1-c1[nH+]c2c3cccnc3c3ncccc3c2n1-c1ccccc1 ?
0.125

Quick one: photoluminescence quantum yield of Fc1ccc(-c2cc3c4c(c2)CCc2cc(-c5ccc(F)cc5)cc(c2-4)CC3)cc1 ?
1

Quick one: photoluminescence quantum yield of CC1=CC(c2ccc3cc(N(C)C)ccc3c2)=[O+][B-](F)(F)O1 ?
0.93

Quick one: photoluminescence quantum yield of CCN(CC)c1ccc2cc(/C(Cl)=C/C=C/C(=C(C#N)C#N)c3ccc4c(c3)c3ccccc3n4CC)c(=O)oc2c1 ?
0.091

Quick one: photoluminescence quantum yield of CCC1=C(C)C2=C(c3c4ccccc4c(C)c4ccccc34)c3c(C)c(CC)c(C)n3[B-](F)(F)[N+]2=C1C ?
0.863

Quick one: photoluminescence quantum yield of CN(C)c1ccc(C#Cc2ccc(C#N)cc2)cc1 ?
0.38

Quick one: photoluminescence quantum yield of CC1(C)c2ccccc2N(c2ccc(-c3nnc(-c4cc(-c5ccccc5)c(-c5ccccc5)c(-c5ccccc5)c4-c4ccccc4)o3)cc2)c2ccccc21 ?
0.235

Quick one: photoluminescence quantum yield of Cc1cc(C)c(C2=C3C=C(c4ccccc4)C(c4ccccc4)=[N+]3[B-](F)(F)n3c2cc(-c2ccccc2)c3-c2ccccc2)c(C)c1 ?
0.75
